Measured viability, T/C of individual entries
Test system: 817829-284-R-J1-PDC complex spheroid viability
Experiment: Anticancer human tumor 817829-284-R-J1-PDC patient-derived colon adenocarcinoma cell line growth inhibition [POLQ]
Settings: second compound 0.316 µM; first compound 0.0316 µM; active compounds read low

{"columns": ["molecule", "uom", "viability, T/C"],
 "data": [
  ["COc1cc(C2c3cc4c(cc3C(OC3OC5COC(C)OC5C(O)C3O)C3COC(=O)C23)OCO4)cc(OC)c1O (stereo not given) + Nc1ccc(C#CCN(C(=O)Cc2ncc(C(F)(F)F)cc2C(F)(F)F)c2ccc(F)cc2)nn1", "%", 88],
  ["CC1COCCN1c1cc(-c2ccnn2C)c2ccnc(-c3ccn[nH]3)c2n1 (stereo not given) + Nc1ccc(C#CCN(C(=O)Cc2ncc(C(F)(F)F)cc2C(F)(F)F)c2ccc(F)cc2)nn1", "%", 60.5],
  ["COc1cc2cc(C(=O)CCC(=O)O)sc2cc1OC + COC1C(OC(N)=O)C(O)C(Oc2ccc3c(O)c(NC(=O)c4ccc(O)c(CC=C(C)C)c4)c(=O)oc3c2C)OC1(C)C", "%", 75.7],
  ["COc1ccc([C@@H](O)c2cc(-c3ncnc4cc(N5CCOCC5)ccc34)c(F)cc2Cl)nn1 + COC1C(OC(N)=O)C(O)C(Oc2ccc3c(O)c(NC(=O)c4ccc(O)c(CC=C(C)C)c4)c(=O)oc3c2C)OC1(C)C", "%", 98.7],
  ["COc1cccc(OCCCN)c1-c1cc(Nc2cnc(C#N)cn2)n[nH]1 + Nc1ccc(C#CCN(C(=O)Cc2ncc(C(F)(F)F)cc2C(F)(F)F)c2ccc(F)cc2)nn1", "%", 4.16]
]}

---

Tested on: 817829-284-R-J1-PDC complex spheroid viability
Assay: Anticancer human tumor 817829-284-R-J1-PDC cell line growth inhibition [POLQ];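 note: spheroids exposed to compounds for 7 days; 100% = DMSO vehicle-treated spheroids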
Settings: second compound 0.316 µM; first compound 0.316 µM; active compounds read low
Listed below: viability, T/C values for each entry.
quantity: viability, T/C

{"columns": ["compound", "result"],
 "data": [
  ["CC1COCCN1c1cc(C2(S(C)(=N)=O)CC2)nc(-c2ccnc3[nH]ccc23)n1 (stereo not given) + COC1C(OC(N)=O)C(O)C(Oc2ccc3c(O)c(NC(=O)c4ccc(O)c(CC=C(C)C)c4)c(=O)oc3c2C)OC1(C)C", "56.8%"],
  ["C=CC(=O)N1CCN(c2nc(=O)n(-c3c(C)ccnc3C(C)C)c3nc(-c4c(O)cccc4F)c(F)cc23)C(C)C1 (stereo not given) + Cc1cccc(N(C)C(=O)C2C(O)CCN2c2nc(C)cc(C(F)(F)F)c2C#N)c1", "108%"],
  ["C#Cc1c(F)ccc2cc(O)cc(-c3ncc4c(N5CC6CCC(C5)N6)nc(OCC56CCCN5CC(F)C6)nc4c3F)c12 (stereo not given) + Nc1ccc(C#CCN(C(=O)Cc2ncc(C(F)(F)F)cc2C(F)(F)F)c2ccc(F)cc2)nn1", "105%"],
  ["CCCS(=O)(=O)Nc1ccc(F)c(C(=O)c2c[nH]c3ncc(-c4ccc(Cl)cc4)cc23)c1F + COC1C(OC(N)=O)C(O)C(Oc2ccc3c(O)c(NC(=O)c4ccc(O)c(CC=C(C)C)c4)c(=O)oc3c2C)OC1(C)C", "58.7%"],
  ["COc1cc2cc(C(=O)CCC(=O)O)sc2cc1OC + Nc1ccc(C#CCN(C(=O)Cc2ncc(C(F)(F)F)cc2C(F)(F)F)c2ccc(F)cc2)nn1", "114%"],
  ["COc1cc(C2c3cc4c(cc3C(OC3OC5COC(C)OC5C(O)C3O)C3COC(=O)C23)OCO4)cc(OC)c1O (stereo not given) + COC1C(OC(N)=O)C(O)C(Oc2ccc3c(O)c(NC(=O)c4ccc(O)c(CC=C(C)C)c4)c(=O)oc3c2C)OC1(C)C", "15.2%"],
  ["CCc1cc2c(N3CCc4c(cc(Cn5ccnc5)cc4-c4cn(C)nc4C(F)(F)F)C3=O)ccnc2c(OC)n1 + COC1C(OC(N)=O)C(O)C(Oc2ccc3c(O)c(NC(=O)c4ccc(O)c(CC=C(C)C)c4)c(=O)oc3c2C)OC1(C)C", "77.7%"],
  ["O=C(Nc1ccc(O)c(NS(=O)(=O)c2ccc(F)cc2)c1)c1ccc(-c2ccccc2)cc1 + COC1C(OC(N)=O)C(O)C(Oc2ccc3c(O)c(NC(=O)c4ccc(O)c(CC=C(C)C)c4)c(=O)oc3c2C)OC1(C)C", "90.4%"],
  ["CCc1c2c(nc3ccc(O)cc13)-c1cc3c(c(=O)n1C2)COC(=O)[C@]3(O)CC + Cc1cccc(N(C)C(=O)C2C(O)CCN2c2nc(C)cc(C(F)(F)F)c2C#N)c1", "5.25%"],
  ["CC1COCCN1c1cc(-c2ccnn2C)c2ccnc(-c3ccn[nH]3)c2n1 (stereo not given) + Cc1cccc(N(C)C(=O)C2C(O)CCN2c2nc(C)cc(C(F)(F)F)c2C#N)c1", "6.75%"]
]}
